The origin of these recorded values is ChEMBL document CHEMBL1136024.

target_desc: C-C chemokine receptor type 3 (Homo sapiens, UniProt P51677)
Sequence (P51677 whole entry): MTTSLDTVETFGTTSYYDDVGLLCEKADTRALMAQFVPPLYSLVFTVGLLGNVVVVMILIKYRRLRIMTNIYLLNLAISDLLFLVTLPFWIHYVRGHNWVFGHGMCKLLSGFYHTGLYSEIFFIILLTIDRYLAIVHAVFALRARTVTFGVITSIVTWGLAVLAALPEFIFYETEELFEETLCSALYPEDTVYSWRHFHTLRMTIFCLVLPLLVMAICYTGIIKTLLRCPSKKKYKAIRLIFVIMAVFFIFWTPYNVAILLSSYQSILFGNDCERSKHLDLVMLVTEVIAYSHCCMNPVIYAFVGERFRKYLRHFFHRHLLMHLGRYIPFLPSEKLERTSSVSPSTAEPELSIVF
experiment_notes: In vitro inhibition if C-C chemokine receptor type 3 (CCR3) using 150p M [125I]-labeled human eotaxin
pIC50: −log10 of the molar value.
endpoint: pIC50

C[S+]([O-])c1ccc(NC(=O)NCCCN2CCC(Cc3ccc(F)cc3)CC2)cc1 (centres undefined) | 6.70
CN(C)c1ccc(NC(=O)NCCCN2CC[C@@H]3[C@H](C2)c2cccc4c2N3CC4)cc1 | 5.32
O=C(NCCCN1CCC(Cc2ccc(F)cc2)CC1)Nc1ccc(C(F)(F)F)cc1 | 7.22
O=C(NCCCN1CC[C@@H]2[C@H](C1)c1cccc3c1N2CC3)Nc1cccc(I)c1 | 5.96
CC(=O)c1ccc(NC(=O)NCCCN2CCC(Cc3ccc(F)cc3)CC2)cc1 | 6.70
COc1ccccc1C(=O)NCCCCN1CC[C@@H]2[C@H](C1)c1cccc3c1N2CC3 | 5.17
COc1cccc(NC(=O)N2CCCC(CCN3CCC(Cc4ccc(F)cc4)CC3)C2)c1 (racemic) | 6.60
CC(=O)c1cccc(NC(=O)NCCCN2CC[C@H](Cc3ccccc3)C[C@@H]2[C@H](O)C(C)C)c1 | 7.00
O=C(CCCN1CC[C@@H]2[C@H](C1)c1cccc3c1N2CC3)c1ccc(F)cc1 | 5.96
